Data provenance is the OPERA property sets (Mansouri et al. 2018).

Each item that follows carries a reported logP.
Reply: number alone, nothing else.

Known results for compounds:
>>> value_measured("Cc1cncnc1")
0.01
>>> value_measured("CCOC(=O)c1ccnnc1")
0.23
>>> value_measured("N#Cc1ccnnc1")
-0.63
>>> value_measured("CCOc1cccnn1")
0.63
>>> value_measured("CCc1nccnc1OC")
1.8

Note logP for the compound shown: `N#Cc1ncccn1`
-0.31

Please report logP for the following compound: `CC(=O)Nc1cncnc1`
-0.22

Determine from records and report logP for `CN(C)c1cncnc1`
0.46

Name the recorded logP of the compound listed here: `Cc1cccnn1`
-0.35

Entry `NC(=O)c1ccncn1` needs its logP filled in; supply it.
-0.68

Identify measured logP associated with `Fc1cncc(F)n1`
0.74

Recall and state the measured logP for `CCOc1nccnc1C` .
1.82

Return reported logP. Input compound: `COC(=O)c1ccncn1`
-0.27
